IC50, CK2a1 (Homo sapiens): measured values

-- ask Recall the recorded IC50 for CC(C)=CCc1c2c(c3occ(-c4ccc(O)c(O)c4)c(=O)c3c1O)C=CC(C)(C)O2 [pomiferin] with CK2a1 (Homo sapiens) and state it.
Sequence (P68400 whole entry): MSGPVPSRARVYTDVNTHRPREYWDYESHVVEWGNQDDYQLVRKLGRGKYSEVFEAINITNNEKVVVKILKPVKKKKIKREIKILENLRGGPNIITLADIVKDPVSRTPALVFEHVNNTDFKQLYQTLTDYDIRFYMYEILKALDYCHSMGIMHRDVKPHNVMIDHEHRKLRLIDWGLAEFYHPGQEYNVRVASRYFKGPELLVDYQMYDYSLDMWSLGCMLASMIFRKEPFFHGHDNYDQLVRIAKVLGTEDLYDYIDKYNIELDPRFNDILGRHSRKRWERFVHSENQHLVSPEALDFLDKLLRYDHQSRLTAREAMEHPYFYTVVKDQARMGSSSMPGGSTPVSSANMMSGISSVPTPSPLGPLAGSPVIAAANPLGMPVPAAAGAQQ
-- reply ~7 µM

-- ask Recall the recorded IC50 for CC1(C)C=Cc2c(c3c(c4c(=O)c(-c5ccc(O)c(O)c5)coc24)OC(C)(C)CC3)O1 [isopomiferin] with CK2a1 (Homo sapiens) and state it.
-- reply ~7 µM
